- Procedure Details: membrane affinity as a measure of the lipophilicity (TRANSIL technology)
- Type: physicochemical
Returns: string. Value is condition met if measured LogMA is below 2, and condition not met if it is greater than or equal to it.

[
  {
    "Compound": "CC(C)=CCN1CCC2(C)c3cc(O)ccc3CC1C2C (centres unmarked) [Pentazocin]",
    "Cat": "condition not met"
  },
  {
    "Compound": "CC(C)(C)NC[C@H](O)COc1nsnc1N1CCOCC1 [Timolol]",
    "Cat": "condition met"
  },
  {
    "Compound": "Nc1nc(O)c2ncn(COC(CO)CO)c2n1 [Ganciclovir]",
    "Cat": "condition met"
  },
  {
    "Compound": "CC(=O)CC(c1ccccc1)c1c(O)c2ccccc2oc1=O (centres unmarked) [Warfarin]",
    "Cat": "condition met"
  },
  {
    "Compound": "CN1C(=O)CN=C(c2ccccc2F)c2cc([N+](=O)[O-])ccc21 [Flunitrazepam]",
    "Cat": "condition not met"
  },
  {
    "Compound": "Clc1cccc(Cl)c1N=C1NCCN1 [Clonidine]",
    "Cat": "condition met"
  },
  {
    "Compound": "Cc1onc(-c2c(Cl)cccc2Cl)c1C(=O)N[C@@H]1C(=O)N2[C@@H]1SC(C)(C)[C@@H]2C(=O)O [Dicloxacillin]",
    "Cat": "condition not met"
  },
  {
    "Compound": "CC(C)NCC(O)COc1cccc2ccccc12 (centres unmarked) [Propranolol]",
    "Cat": "condition not met"
  },
  {
    "Compound": "O=C(O)c1ccccc1O [Salicylic acid]",
    "Cat": "condition met"
  },
  {
    "Compound": "OC(CCN1CCCCC1)(c1ccccc1)C1CCCCC1 (centres unmarked) [Trihexylphenidyl]",
    "Cat": "condition not met"
  },
  {
    "Compound": "Cc1cc(=O)n(-c2ccccc2)n1C [Antipyrine]",
    "Cat": "condition met"
  },
  {
    "Compound": "CC(CN1c2ccccc2Sc2ccccc21)N(C)C (centres unmarked) [Promethazine]",
    "Cat": "condition not met"
  },
  {
    "Compound": "COc1cccc2c1C(=O)c1c(O)c3c(c(O)c1C2=O)C[C@@](O)(C(=O)CO)C[C@@H]3O[C@H]1C[C@H](N)[C@H](O)[C@H](C)O1 [Doxorubicin]",
    "Cat": "condition not met"
  },
  {
    "Compound": "CC(C(=O)O)c1cccc(C(=O)c2ccccc2)c1 (centres unmarked) [Ketoprofen]",
    "Cat": "condition met"
  },
  {
    "Compound": "CC1=C(C(=O)O)N2C(=O)[C@@H](NC(=O)[C@H](N)c3ccccc3)[C@H]2SC1 [Cephalexine]",
    "Cat": "condition met"
  },
  {
    "Compound": "CCN(CC)CC(=O)Nc1c(C)cccc1C [Lidocaine]",
    "Cat": "condition met"
  },
  {
    "Compound": "CCOC(=O)[C@H](CCc1ccccc1)N[C@@H](C)C(=O)N1CCC[C@H]1C(=O)O [Enalapril]",
    "Cat": "condition met"
  },
  {
    "Compound": "CCN1CCN(C(=O)N[C@@H](C(=O)N[C@@H]2C(=O)N3C(C(=O)O)=C(CSc4nnnn4C)CS[C@H]23)c2ccc(O)cc2)C(=O)C1=O [Cefoperazone]",
    "Cat": "condition met"
  },
  {
    "Compound": "O=C(CCCN1CCC(O)(c2ccc(Cl)cc2)CC1)c1ccc(F)cc1 [Haloperidol]",
    "Cat": "condition not met"
  },
  {
    "Compound": "Cc1nnc(SCC2=C(C(=O)O)N3C(=O)[C@@H](NC(=O)Cn4cnnn4)[C@H]3SC2)s1 [Cefazolin]",
    "Cat": "condition met"
  },
  {
    "Compound": "CC1=C(C(=O)O)N2C(=O)[C@@H](NC(=O)[C@H](N)c3ccc(O)cc3)[C@H]2SC1 [Cefadroxil]",
    "Cat": "condition met"
  },
  {
    "Compound": "CN(C)CCCN1c2ccccc2Sc2ccccc21 [Promazine]",
    "Cat": "condition not met"
  },
  {
    "Compound": "C[C@]12C=CC(=O)C=C1CC[C@@H]1[C@@H]2[C@@H](O)C[C@@]2(C)[C@H]1CC[C@]2(O)C(=O)CO [Prednisolone]",
    "Cat": "condition not met"
  },
  {
    "Compound": "COCCc1ccc(OCC(O)CNC(C)C)cc1 (centres unmarked) [Metoprolol]",
    "Cat": "condition met"
  },
  {
    "Compound": "CC(C)NCC(O)c1ccc(NS(C)(=O)=O)cc1 (centres unmarked) [Sotalol]",
    "Cat": "condition met"
  },
  {
    "Compound": "CCCC(C)C1(CC)C(=O)NC(=O)NC1=O (centres unmarked) [Pentobarbital]",
    "Cat": "condition not met"
  },
  {
    "Compound": "CC(C)NCC(O)COc1cccc2[nH]ccc12 (centres unmarked) [Pindolol]",
    "Cat": "condition not met"
  },
  {
    "Compound": "CN/C(=N/CCSCc1nc[nH]c1C)NC#N [Cimetidine]",
    "Cat": "condition met"
  },
  {
    "Compound": "CN(C)CCCN1c2ccccc2Sc2ccc(Cl)cc21 [Chlorpromazine]",
    "Cat": "condition not met"
  },
  {
    "Compound": "CC(=O)Nc1ccc(OCC(O)CNC(C)C)cc1 (centres unmarked) [Practolol]",
    "Cat": "condition met"
  },
  {
    "Compound": "NCCCC[C@H](N[C@@H](CCc1ccccc1)C(=O)O)C(=O)N1CCC[C@H]1C(=O)O [Lisinopril]",
    "Cat": "condition met"
  },
  {
    "Compound": "CC(C)NCC(O)COc1ccc(CCOCC2CC2)cc1 (centres unmarked) [Betaxolol]",
    "Cat": "condition not met"
  },
  {
    "Compound": "C[C@H]1O[C@@H](O[C@H]2[C@@H](O)C[C@H](O[C@H]3[C@@H](O)C[C@H](O[C@H]4CC[C@@]5(C)[C@H](CC[C@@H]6[C@@H]5C[C@@H](O)[C@]5(C)[C@@H](C7=CC(=O)OC7)CC[C@]65O)C4)O[C@@H]3C)O[C@@H]2C)C[C@H](O)[C@@H]1O [Digoxin]",
    "Cat": "condition met"
  },
  {
    "Compound": "CN1C(C(=O)Nc2ccccn2)=C(O)c2ccccc2S1(=O)=O [Piroxicam]",
    "Cat": "condition not met"
  }
]

###

- System Tested: human serum albumin (Homo sapiens, UniProt P02768)
- Sequence (P02768 25-609): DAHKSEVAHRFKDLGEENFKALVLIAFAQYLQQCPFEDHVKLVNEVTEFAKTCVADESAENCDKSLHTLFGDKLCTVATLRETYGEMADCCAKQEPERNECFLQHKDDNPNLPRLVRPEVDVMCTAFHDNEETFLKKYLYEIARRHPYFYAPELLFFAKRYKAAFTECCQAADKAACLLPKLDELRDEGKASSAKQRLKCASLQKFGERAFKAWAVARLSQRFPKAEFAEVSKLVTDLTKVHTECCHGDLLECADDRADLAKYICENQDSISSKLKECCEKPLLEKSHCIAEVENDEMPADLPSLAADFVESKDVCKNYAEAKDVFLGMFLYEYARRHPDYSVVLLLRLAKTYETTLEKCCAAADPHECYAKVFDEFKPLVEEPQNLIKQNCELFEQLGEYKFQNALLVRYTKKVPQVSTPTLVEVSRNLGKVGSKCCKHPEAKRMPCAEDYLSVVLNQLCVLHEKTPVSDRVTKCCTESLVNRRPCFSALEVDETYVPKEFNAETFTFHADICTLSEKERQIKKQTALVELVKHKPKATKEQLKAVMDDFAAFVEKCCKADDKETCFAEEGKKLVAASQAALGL
- Procedure Details: binding constant to human serum albumin (TRANSIL technology)
- Stated Conditions: human
Decision: LogHSA compared against -3; not below it gives yes (1), below it gives no (0).

[
  {
    "Compound": "CN(C)CCCN1c2ccccc2CCc2ccccc21",
    "System Tested": "human serum albumin (Homo sapiens, UniProt P02768)",
    "Cat": "no (0)"
  },
  {
    "Compound": "CC(C)(C)NC[C@H](O)COc1nsnc1N1CCOCC1",
    "System Tested": "human serum albumin (Homo sapiens, UniProt P02768)",
    "Cat": "yes (1)"
  },
  {
    "Compound": "Cc1ccccc1N1C(=O)c2cc(S(N)(=O)=O)c(Cl)cc2NC1C (centres unmarked)",
    "System Tested": "human serum albumin (Homo sapiens, UniProt P02768)",
    "Cat": "no (0)"
  },
  {
    "Compound": "NC(=O)N1c2ccccc2C=Cc2ccccc21 [Carbamazepine]",
    "System Tested": "human serum albumin (Homo sapiens, UniProt P02768)",
    "Cat": "yes (1)"
  },
  {
    "Compound": "CN1CCN(c2c(F)cc3c(=O)c(C(=O)O)cn(CCF)c3c2F)CC1",
    "System Tested": "human serum albumin (Homo sapiens, UniProt P02768)",
    "Cat": "yes (1)"
  }
]

###

- Procedure Details: membrane affinity as a measure of the lipophilicity (TRANSIL technology)
- Assay type: physicochemical
Recorded Metric: LogMA

[
  {
    "Molecule": "CCCN(CCC)S(=O)(=O)c1ccc(C(=O)O)cc1 [Probenecid]",
    "Recorded Metric": "LogMA",
    "Endpoint Value": 1.322
  },
  {
    "Molecule": "COc1ccc(Cl)cc1C(=O)NCCc1ccc(S(=O)(=O)NC(=O)NC2CCCCC2)cc1 [Glibenclamid]",
    "Recorded Metric": "LogMA",
    "Endpoint Value": 2.301
  },
  {
    "Molecule": "CC1(C)S[C@@H]2[C@H](NC(=O)Cc3ccccc3)C(=O)N2[C@H]1C(=O)O [Penicilin G]",
    "Recorded Metric": "LogMA",
    "Endpoint Value": 1.041
  },
  {
    "Molecule": "CC(C)NCC(O)COc1ccc(CC(N)=O)cc1 (stereo not shown) [Atenolol]",
    "Recorded Metric": "LogMA",
    "Endpoint Value": 0.602
  },
  {
    "Molecule": "COc1ccc2c(c1)c(CC(=O)O)c(C)n2C(=O)c1ccc(Cl)cc1 [Indomethacin]",
    "Recorded Metric": "LogMA",
    "Endpoint Value": 2.255
  },
  {
    "Molecule": "CC1(C)S[C@@H]2[C@H](NC(=O)COc3ccccc3)C(=O)N2[C@H]1C(=O)O [Phenoxymethyl penicillinic acid]",
    "Recorded Metric": "LogMA",
    "Endpoint Value": 1.146
  },
  {
    "Molecule": "CC(C)(C)NCC(O)COc1cccc2c1CC(O)C(O)C2 (stereo not shown) [Nadolol]",
    "Recorded Metric": "LogMA",
    "Endpoint Value": 0.602
  },
  {
    "Molecule": "CC(C)(C)NCC(O)c1cc(O)cc(O)c1 (stereo not shown) [Terbutaline]",
    "Recorded Metric": "LogMA",
    "Endpoint Value": 0.845
  },
  {
    "Molecule": "C=CCc1ccccc1OCC(O)CNC(C)C (stereo not shown) [Alprenolol]",
    "Recorded Metric": "LogMA",
    "Endpoint Value": 2.699
  },
  {
    "Molecule": "CN1CCN(c2c(F)cc3c(=O)c(C(=O)O)cn(CCF)c3c2F)CC1 [Fleroxacin]",
    "Recorded Metric": "LogMA",
    "Endpoint Value": 1.301
  },
  {
    "Molecule": "CCn1cc(C(=O)O)c(=O)c2cc(F)c(N3CCNCC3)nc21 [Enoxacin]",
    "Recorded Metric": "LogMA",
    "Endpoint Value": 0.954
  },
  {
    "Molecule": "CCCCNc1cc(C(=O)O)cc(S(N)(=O)=O)c1Oc1ccccc1 [Bumetanide]",
    "Recorded Metric": "LogMA",
    "Endpoint Value": 2.279
  },
  {
    "Molecule": "Cc1nnc(NS(=O)(=O)c2ccc(N)cc2)s1 [Sulfamethizole]",
    "Recorded Metric": "LogMA",
    "Endpoint Value": 1.000
  },
  {
    "Molecule": "CN(Cc1cnc2nc(N)nc(N)c2n1)c1ccc(C(=O)N[C@@H](CCC(=O)O)C(=O)O)cc1 [Metotrexate]",
    "Recorded Metric": "LogMA",
    "Endpoint Value": 1.176
  },
  {
    "Molecule": "O=C(O)Cc1ccccc1Nc1c(Cl)cccc1Cl [Diclofenac]",
    "Recorded Metric": "LogMA",
    "Endpoint Value": 2.940
  },
  {
    "Molecule": "O=C(O)c1cc(/N=N/c2ccc(S(=O)(=O)Nc3ccccn3)cc2)ccc1O [Sulfasalacine]",
    "Recorded Metric": "LogMA",
    "Endpoint Value": 2.748
  },
  {
    "Molecule": "C[C@]12C[C@H](O)[C@H]3[C@@H](CCC4=CC(=O)CC[C@@]43C)[C@@H]1CC[C@@H]2C(=O)CO [Corticosterone]",
    "Recorded Metric": "LogMA",
    "Endpoint Value": 2.531
  },
  {
    "Molecule": "CC(C)Cc1ccc(C(C)C(=O)O)cc1 (stereo not shown) [Ibuprofen]",
    "Recorded Metric": "LogMA",
    "Endpoint Value": 1.778
  },
  {
    "Molecule": "CCCC(CCC)C(=O)O [Valproic acid]",
    "Recorded Metric": "LogMA",
    "Endpoint Value": 1.041
  }
]

From: patent US20050137807A1
